# Ki per record follows
# assayedSystem: serotonin transporter (Rattus norvegicus, UniProt P31652)
# Construct: frontal cortical membranes prepared from male Sprague-Dawley rats; from tissue; host or cells: frontal cortical membranes of male Sprague-Dawley rats
# Sequence (P31652 whole entry): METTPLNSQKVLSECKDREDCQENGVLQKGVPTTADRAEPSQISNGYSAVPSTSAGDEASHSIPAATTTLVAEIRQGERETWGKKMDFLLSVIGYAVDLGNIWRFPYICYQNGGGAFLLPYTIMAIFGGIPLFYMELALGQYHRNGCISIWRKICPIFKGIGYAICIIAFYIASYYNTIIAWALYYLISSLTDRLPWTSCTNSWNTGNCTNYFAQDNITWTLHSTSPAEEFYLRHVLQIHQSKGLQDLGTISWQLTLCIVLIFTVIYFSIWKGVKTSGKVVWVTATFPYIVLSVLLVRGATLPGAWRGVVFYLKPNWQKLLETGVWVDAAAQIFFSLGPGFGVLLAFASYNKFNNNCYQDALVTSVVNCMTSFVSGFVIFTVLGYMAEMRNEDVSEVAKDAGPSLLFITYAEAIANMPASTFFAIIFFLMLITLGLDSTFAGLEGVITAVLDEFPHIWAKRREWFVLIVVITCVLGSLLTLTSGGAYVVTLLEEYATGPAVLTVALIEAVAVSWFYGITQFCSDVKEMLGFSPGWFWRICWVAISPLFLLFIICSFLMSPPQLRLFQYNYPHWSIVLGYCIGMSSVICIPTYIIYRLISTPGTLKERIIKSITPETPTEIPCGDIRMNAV
# assayName: serotonin transporter (ST) binding, 3H-paroxetine displacement in rat frontal cortical membranes
# Set-up: species or system rat (male Sprague-Dawley)
assayMetric: Ki (nM)

molecule: C1=C(c2c[nH]c3ncccc23)CCN(CC2CN(c3ccccc3)c3ccccc3O2)C1 (centres unmarked) [Example 6]
numericValue: 106

molecule: COc1cccc2c1OC(CN1CC=C(c3c[nH]c4ccc(F)cc34)CC1)CN2C (centres unmarked) [Example 2]
numericValue: 8.5

molecule: CCCN1CC(CN2CC=C(c3c[nH]c4ccc(F)cc34)CC2)Oc2c(OC)cccc21 (centres unmarked) [Example 4]
numericValue: 20

molecule: CCN1CC(CN2CC=C(c3c[nH]c4ccc(F)cc34)CC2)Oc2c(OC)cccc21 (centres unmarked) [Example 3]
numericValue: 12

molecule: COc1cccc2c1OC(CN1CC=C(c3c[nH]c4ccc(F)cc34)CC1)CN2 (centres unmarked) [Example 1]
numericValue: 3.7
